// provenance: patent US20190010233A1

measurement_target: full length human PD-L1 on cells (human, UniProt Q9NZQ7 19-290)
Sequence (Q9NZQ7 19-290 limits assumed): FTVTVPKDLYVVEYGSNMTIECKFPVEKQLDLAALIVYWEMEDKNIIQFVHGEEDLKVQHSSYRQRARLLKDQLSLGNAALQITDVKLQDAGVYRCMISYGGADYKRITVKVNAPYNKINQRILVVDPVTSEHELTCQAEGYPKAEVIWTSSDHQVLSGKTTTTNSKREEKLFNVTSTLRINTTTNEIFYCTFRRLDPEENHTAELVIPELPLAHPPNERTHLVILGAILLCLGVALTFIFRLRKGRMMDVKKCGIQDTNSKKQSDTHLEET
experiment_description: cell-based or functional assay
experimental_endpoint: IFN-γ (pg/mL), PBMC stimulation, 0.001 µg/mL mAb

[[record]]
binder = "chimeric anti-PD-L1 antibody 73D3G2 (antibody, V domains shown, Purified from hybridoma of Harbour H2L2 mice: human variable regions, rat constant regions) VH: EVQLVESGGGLVQPGGSLRLSCAASGFTFNTYWMNWVRQAPGRGLEWVANIKQDGGEKYYVDSVKGRFTISRDNAKNSLYLQMNSLRAEDTAMYYCARDGRSWYPDAFDIWGQGTVVTVSS VL: DIQMTQSPSTLSASVGDRVTITCRASQSISTWLAWYQQKLGKAPKLLIYEVSILESGVPSRFSGSGSGTEFTLTISSLQPDDFATYYCQQYHSFSSFGGGTRVEIK"
observed = 3830

[[record]]
binder = "chimeric anti-PD-L1 antibody 127D2F3 (antibody, V domains shown, Purified from hybridoma of Harbour H2L2 mice: human variable regions, rat constant regions) VH: EVQLVESGGGLVQPGGSLRLSCVASGFTFSSYWMSWVRQAPGKGLEWVANIKQDGSEKYYVDSVKGRLTISRDNAKNSLYLQMKSLRAEDTAVYYCARDPIYSSYFDYWGQGILVTVSS VL: DIQMTQSPSSLSASVGDRVTITCRASQSISNYLNWYQQKPGKAPKLLIYAASSLQSGVPSRFSGSGSGTDFTLTISSLQPEDFAAYYCQQSYGIPFTFGPGTKVDIK"
observed = 3380

[[record]]
binder = "chimeric anti-PD-L1 antibody 78A11F6 (antibody, V domains shown, Purified from hybridoma of Harbour H2L2 mice: human variable regions, rat constant regions) VH: EVQLVESGGGLVQPGGSLRLSCAASGITFSSYWMSWVRQTPGKGLEWVANIKQDGSEKYYVKSVKGRFTISRDNAKNSLYLQMNSLRAEDTAVYYCVRDRAVPGTGAFDIWGQGTMVIVSS VL: DIQMTQSPSTLSASVGDRVTITCRASQSISNWLAWYQQKPGKAPKLLIYKASSLESGVPSRFSGSGSGTEFTLTISSLQPDDFATYYCQQYDSSLFTFGQGTKLEIK"
observed = 3740

[[record]]
binder = "chimeric anti-PD-L1 antibody 105C5D7 (antibody, V domains shown, Purified from hybridoma of Harbour H2L2 mice: human variable regions, rat constant regions) VH: EVQLVESGGGLVQPGGSLRLSCAASGFTFSSYWMSWVRQAPGKGLEWVANIKQDGNEKYYVDSVKGRFTISRDNAKNSLYLQMNSLRAEDTAVYYCARNIKWGDAFDIWGQGTMVTVSS VL: DIQMTQSPSSLSASVGDRVTITCRASQSISSYLNWYQQKPGKAPKLLIYAASSLQSGVPSRFSGSGSGTDFTLTISSLQPEDFAIYSCQQSYSIPLTFGGGTKVEIK"
observed = 1640

